Listing: inhibition at 20 µM of selected molecules
TARGET_OR_SYSTEM: recombinant full-length BoNT/B light chain (rBLC) (Clostridium botulinum, UniProt P10844)
Sequence (P10844 2-441 limits assumed): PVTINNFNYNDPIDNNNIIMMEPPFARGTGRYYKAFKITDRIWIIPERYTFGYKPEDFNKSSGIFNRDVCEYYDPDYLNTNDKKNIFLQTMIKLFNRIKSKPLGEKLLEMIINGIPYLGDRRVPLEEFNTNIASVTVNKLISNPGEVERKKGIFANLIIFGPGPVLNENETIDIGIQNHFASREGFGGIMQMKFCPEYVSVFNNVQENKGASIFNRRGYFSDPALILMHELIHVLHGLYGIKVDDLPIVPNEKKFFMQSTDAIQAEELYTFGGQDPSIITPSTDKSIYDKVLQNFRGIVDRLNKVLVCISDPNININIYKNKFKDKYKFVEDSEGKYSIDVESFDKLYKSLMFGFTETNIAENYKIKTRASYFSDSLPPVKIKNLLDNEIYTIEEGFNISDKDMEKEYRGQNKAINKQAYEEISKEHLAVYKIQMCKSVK
ASSAY_COMMENT: biochemical
TEST_CONTEXT: read-out: % Inhibition Against rBLC
ASSAY_READOUT: inhibition at 20 µM

Oc1c(C(Nc2cccnc2)c2ccccc2F)ccc2cccnc12 (racemic) | 16.8%
CCOc1ccc(C(Nc2cccnc2)c2cc(Cl)c3cccnc3c2O)cc1 (racemic) | 31.2%
Oc1c(C(Nc2cccc3cccnc23)c2ccccc2)ccc2cccnc12 (racemic) | 6.9%
Oc1c(C(Nc2cccnc2)c2ccc(C(F)(F)F)cc2)ccc2cccnc12 (racemic) | 30.2%
